- study_system: integrin CD11b/CD18 (Homo sapiens, UniProt P05107+P11215)
- Sequence (P05107 23-769, other chains not shown): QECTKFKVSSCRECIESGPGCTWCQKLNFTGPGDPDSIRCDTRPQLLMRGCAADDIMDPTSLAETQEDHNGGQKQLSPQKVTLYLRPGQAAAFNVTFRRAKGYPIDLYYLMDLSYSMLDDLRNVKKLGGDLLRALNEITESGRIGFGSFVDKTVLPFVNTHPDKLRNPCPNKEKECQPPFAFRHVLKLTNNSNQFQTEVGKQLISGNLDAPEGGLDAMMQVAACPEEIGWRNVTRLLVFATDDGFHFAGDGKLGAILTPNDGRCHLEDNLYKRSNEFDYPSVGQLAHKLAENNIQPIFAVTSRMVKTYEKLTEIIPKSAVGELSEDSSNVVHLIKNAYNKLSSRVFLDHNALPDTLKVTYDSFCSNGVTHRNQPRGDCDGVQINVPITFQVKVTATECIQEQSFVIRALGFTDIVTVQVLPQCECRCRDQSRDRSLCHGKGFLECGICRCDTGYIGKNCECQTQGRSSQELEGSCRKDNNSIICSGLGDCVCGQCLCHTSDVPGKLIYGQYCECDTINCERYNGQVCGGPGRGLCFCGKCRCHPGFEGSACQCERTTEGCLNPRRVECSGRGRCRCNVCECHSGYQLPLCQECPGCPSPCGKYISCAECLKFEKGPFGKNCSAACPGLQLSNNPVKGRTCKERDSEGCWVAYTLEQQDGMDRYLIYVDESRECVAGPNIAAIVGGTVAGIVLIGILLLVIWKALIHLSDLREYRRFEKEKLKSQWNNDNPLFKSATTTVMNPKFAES
- test: no-wash cell adhesion assay for agonists: K562 CD11b/CD18 cells on fibrinogen in TBS++
- condition_parameters: secondary screen; read-out: EC50, concentration required for half-maximal increase in cell-adhesion
result_type: EC50

Tell me measured EC50 for N=C1SC(=Cc2ccco2)C(=O)N1c1nccs1 [Compound 9] please.
~6.7 µM
